# System: Mouse B cell
# assay_name: cells
# setup_conditions: 72 h, read-out: IC50, Mouse B cell proliferation
observed_property: IC50
Enter the number, and then the unit.

Q. I would be grateful if you could share the reported IC50 for Cc1cc(C(=O)Nc2nc3cccc(Cl)c3n2[C@@H]2CCCCN(C(=O)/C=C/CN(C)C)C2)ccn1 .
A. 295 nM
